# Assayed Target: Estrogen receptor (Homo sapiens) (UniProt P03372)
# Sequence (P03372 whole entry, looked up): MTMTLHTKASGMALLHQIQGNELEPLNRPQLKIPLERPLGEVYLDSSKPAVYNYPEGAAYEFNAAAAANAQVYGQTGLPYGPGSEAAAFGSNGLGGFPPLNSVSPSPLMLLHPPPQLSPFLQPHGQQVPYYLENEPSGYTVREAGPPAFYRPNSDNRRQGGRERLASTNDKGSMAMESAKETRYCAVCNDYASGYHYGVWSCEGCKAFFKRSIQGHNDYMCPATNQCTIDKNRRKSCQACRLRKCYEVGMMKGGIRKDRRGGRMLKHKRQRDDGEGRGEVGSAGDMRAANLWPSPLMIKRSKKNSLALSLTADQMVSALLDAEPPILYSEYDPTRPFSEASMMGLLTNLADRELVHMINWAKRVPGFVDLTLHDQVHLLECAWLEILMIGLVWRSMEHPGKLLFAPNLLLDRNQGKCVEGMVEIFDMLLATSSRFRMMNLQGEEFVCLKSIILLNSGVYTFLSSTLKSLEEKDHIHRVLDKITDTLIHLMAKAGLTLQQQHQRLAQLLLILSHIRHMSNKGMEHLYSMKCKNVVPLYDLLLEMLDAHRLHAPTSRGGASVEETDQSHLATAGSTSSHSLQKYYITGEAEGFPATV
# Run Description: qHTS assay to identify small molecule antagonists of the estrogen receptor alpha (ER-alpha) signaling pathway using the BG1 cell line in the presence of 0.1 nM 17-beta-estradiol (AID 1259244); note: nearly all actives have a fitted effect of over 50% in size
# Applied Conditions: VM7Luc4E2 (BG1) ERE-luciferase, antagonist mode, 0.1 nM E2, 22 h; series mostly up to 92.4 µM
Records with an inconclusive call do not appear. Activity calls are given as the source filed them. Calls come from the whole dose curve; as a rule, active = well fitted inhibition curve with a large enough effect in the repeat runs; inconclusive = weak or mixed curves; inactive = no such curve, though single readings can be large or run the other way.
Bench note: report the call from 1 (yes) (active), 0 (no) (inactive)

# fetch the recorded call for `Cc1cccc(C(=O)O)c1O` here
0 (no)

I'd appreciate the recorded outcome for `Cc1ccc(C)cc1` from this test.
0 (no)

Answer briefly: the call reported for `C=CC(=O)OCCOC(=O)C=C` in this assay.
0 (no)

What classification did `C=Cc1cccc(C)c1` end up with in this test?
0 (no)

Please let me know the test result on file for `Nc1cc(Cl)c(O)c(Cl)c1` .
0 (no)

Fill in: this test's call for `Cc1cc(-c2ccc(N=Nc3cc(S(=O)(=O)O)c4ccccc4c3N)c(C)c2)ccc1N=Nc1cc(S(=O)(=O)O)c2ccccc2c1N` is ___
1 (yes)
